All figures here come from the DeepSol protein solubility set.

assay: soluble on expression in E. coli; label from the status in PepcDB or PDB records
Measure: soluble on expression in E. coli

Short answer for MVENSELRKAGLKVTLPRVKILQMLDSAEQRHMSAEDVYKALMEAGEDVGLATVYRVLTQFEAAGLVVRHNFDGGHAVFELADSGHHDHMVCVDTGEVIEFMDAEIEKRQKEIVRERGFELVDHNLVLYVRKKK : soluble on expression in E. coli was not soluble

get_value(item= MGSDKIHHHHHHLANTKELGPLRILISRLLKKAGELCFTASDLTISKEQAKLITRGAPRFPYHTPHNMLFWLDESQYVDKCIIQHGKYESASTNLVQQFVKEGQTVLDIGGNIGYYTVMFSKIVGRSGKVITFEPTAHYRSILEKNVQENQINNVLIRPEGLSDKAEKLTISIGSSTATLHAPEGQQIDSYEAIQLARLDDLVEQLDITKLDFIKIDVDGHEPSVLRGAQQTIKKFKPLILLEVSHLHYLEGNVFAWDFYDYLSSLNYYIYDEHEMCRITRRSDFLIRCANFDRSCNILLSPTLLNEH , readout=soluble on expression in E. coli) returns not soluble
